Give measured peptide exchange yield for each item. Keep answers brief.
Target: T1, HLA-A*02:01 (human)
T1 construct: monomers captured on streptavidin plates; also called MHC class I
Assay: UV peptide exchange ELISA

I am curious: what peptide exchange yield value has been reported for "VLLEIEDLQV" ?
≥ 75%

Lookup "FLDPGGPMMKL"
50 to 75%

Do the same for "ALFQATAEV" please
≥ 75%

Same lookup for "ALLEASGTLLL" , please.
≥ 75%

Now consider "SLSEIVPCL" and answer again.
50 to 75%

Please give the result for "GLINTGVLSV" too.
20 to 50%

Next binder up: "ILLEQAFYL"
50 to 75%

"ALFPGVALLLA" , same question.
≥ 75%
